Measured cytotoxicity at 70.5 h by item
protocol summary: Human HepG2 cell viability assay in 384 well format
Type: toxicity, cell-based
Design: dose 125 nL, time 70.5 hour; concentration not given beside the values
test settings: HepG2 cells, read-out: Inhibition
measured endpoint: cytotoxicity at 70.5 h (%)

1. O=C(NCc1csc(Cc2ccccc2)n1)C1NCCc2[nH]cnc21 (configuration not stated) ... -2.44
2. Cc1nc(C(C)C)sc1C(C)N(C)C(=O)c1ccc(=O)n(C)n1 (configuration not stated) ... -1.77
3. COC[C@H]1CC[C@H]2[C@H](CCN2S(=O)(=O)Cc2ccccc2)O1 ... -4.05
4. CCc1ccccc1OCCN1C[C@@H](NS(C)(=O)=O)[C@H](C(C)C)C1 ... -5.69
5. CN(C)CCN1CCOCC2(CCCN(C(=O)Cc3ccccc3)C2)C1 (configuration not stated) ... 10.9
6. CC(C)CCCNC(=O)Nc1ccc(F)c(C(N)=O)c1 ... 2.14
7. CCn1c(-c2ccccc2)nn(CC(=O)NCCc2c[nH]cn2)c1=O ... 28.4
8. CCc1nc2n(n1)CC(NCCC(=O)Nc1cc(C)on1)CC2 (configuration not stated) ... -6.35
9. CC(C)C(NC(=O)N1CCN(c2ccc(Cl)cc2)CC1)C(=O)NC1CC1 (configuration not stated) ... -6.65
10. Cc1cc(C)c(CNc2cnn(CC(O)CN(C)C)c2)c(C)c1 (configuration not stated) ... -11.8
11. OC1(CN2CCOC(Cn3cccn3)C2)CCCCC1 (configuration not stated) ... 0.595
12. Cc1nc2c(c(NCCN3CCOCC3)n1)CCN(C)C2 ... 32.4
13. Cc1cc(C)n(-c2cncc(NCCNC(=O)C(C)C)n2)n1 ... -3.05
14. Cn1cc(CNC2CC3(CCN(CC4CC4)CC3)c3ccccc32)cn1 (configuration not stated) ... -2.11
15. Cc1nc(C)c(CNCC2CCCn3ccnc32)s1 (configuration not stated) ... 15.5
16. Cc1cnc(N2CCC(c3ccncc3)CC2)nc1-c1ccnn1C ... -12.9
17. CCc1ccc(NC(=O)C2CCN(C(=O)COC)CC2)cc1 ... -9.16
18. NC(=O)C1CCN(C(=O)CCn2ccc3ccc(F)cc32)CC1 ... -6.99
19. CN(C(=O)NCc1nccn1CCc1ccccc1)C1CCC1 ... 1.68
20. CCN1C(=O)CO[C@@H]2CN(C(=O)C3CCOCC3)C[C@H]21 ... -6.45
21. Cc1occc1CN(C)Cc1nc2c(cnn2C)c(=O)[nH]1 ... -3.6
22. O=C(O)c1csc(S(=O)(=O)Nc2c(F)cccc2-n2cccn2)c1 ... 4.64
23. COc1ccc(Cl)cc1NCc1nc2[nH]c(C)c(C)c(=O)n2n1 ... -4.46
24. CNc1nnc(SCc2nnc(C(C)(C)C)o2)s1 ... 15.4
25. CCn1ccnc1CN1CCCN(C(=O)c2cnn(C)c2)CC1 ... -7.1
26. CCN(CC)S(=O)(=O)N1CC[C@H](c2ccccc2)[C@@H]2[C@H]1CCCCN2C ... -0.108
27. CCOCCCNC(=O)C(C)n1cc(Br)cn1 (configuration not stated) ... 1.42
28. CCn1cc(CN2CCCC(c3[nH]ncc3-c3ccc(C)cc3)C2)cn1 (configuration not stated) ... -16.8
29. CC(C)c1noc(CCC(=O)NCC2CCC(C(N)=O)CC2)n1 (configuration not stated) ... 1.53
30. NC(=O)NC(=O)CN1CCN(CC2CC2)c2ccccc21 ... 8.16
31. CN1CCN(Cc2cccnc2)C(=O)C12CCN(C1CCOC1)CC2 (configuration not stated) ... -5.29
32. CN(C)CCn1cc(NC(=O)NC(C)(C)c2nccs2)cn1 ... -3.3
33. c1cnc(N2CCC(NCc3cnc(C4CCC4)s3)CC2)nc1 ... -11.5
34. C[S+]([O-])c1nncn1CC(=O)c1cccc(C(F)(F)F)c1 (configuration not stated) ... -1.93
35. Cn1c(C(=O)Nc2nc[nH]n2)cc2ccccc21 ... 10.4
36. CNC(=O)CNCC1(O)CCCN(Cc2ccc(F)c(F)c2)C1=O (configuration not stated) ... 29
37. Cc1ccc2nc(C)c(C)c(C(=O)N3CCN(c4nccs4)CC3)c2c1 ... -7.96
38. Cn1cc(C2CC(=O)NC23CCN(C(=O)NC2CC2)CC3)cn1 (configuration not stated) ... -6.56
39. CCn1c(CN2CCN(CC(N)=O)CC2)nc2c(F)cccc21 ... -0.996
40. CN(C)c1ncc(-c2ccc(C(N)=O)cc2)c(C2CCNC2)n1 (configuration not stated) ... -2.25
41. c1cc(-c2noc(CN3CCc4c(ncn4C4CC4)C3)n2)cs1 ... -20.1
42. COCCN(C)CC(=O)N1C[C@H]2CC[C@@H]1CN(C(=O)c1ccncc1)C2 ... -10.1
43. CC(C)N(C)Cc1nnc2n1CCCN(S(=O)(=O)C1CC1)C2 ... -5.26
44. COc1cccc(CC2CN(C(=O)c3ccnn3C)CCO2)c1 (configuration not stated) ... -4.96
45. Cc1[nH]ncc1C(=O)N1CCCC(c2cc(C(F)(F)F)[nH]n2)C1 (configuration not stated) ... 5.58
46. CC(C)c1sc(Br)nc1C(=O)NCc1ccncc1 ... 23
47. Cn1cc(Br)c(=O)c(NS(=O)(=O)c2ccc(F)cc2)c1 ... 16.4
